System: mouse organs
Experiment: In vivo activity screening in mice: organ mean total flux (p/s) of luciferase activity after injection of F2 LNP pools (Table 6, FIG. 7A-7C)
Conditions: Mouse 5, dose 0.5 mg/kg, luciferase mRNA
Marks after values point to notes of the source that are not given here.
Hi there, I'd appreciate the recorded Organ Mean Total Flux Spleen for every entry that follows.

Examples from the recorded data:
CCCCC/C=C\C/C=C\CCCCCCCCC(CCCCCCCC/C=C\C/C=C\CCCCC)OC(=O)CCCN(C)C [MC3, reference compound]; 17.6 p/s (×10^6)
CCCC/C=C\CCOC(=O)CCCCCCC(=O)OCC(COC(=O)CCCCCCC(=O)OCC/C=C\CCCC)(COC(=O)CCCCCCC(=O)OCC/C=C\CCCC)COC(=O)CCC(CCCCCC)OC(=O)NCCN1CCCC1 (stereo not drawn); 9.5 p/s (×10^6)

Here is another compound to look at.
What measured Organ Mean Total Flux Spleen goes with CCCCCCCCCC(C)OC(=O)CCCCCCC(=O)OCC(COC(=O)CCCCCCC(=O)OC(C)CCCCCCCCC)(COC(=O)CCCCCCC(=O)OC(C)CCCCCCCCC)COC(=O)CCC(CCCCCC)OC(=O)NCCN1CCCC1 (stereo not drawn) ?
2.5 p/s (×10^6)

Reference source for all entries: patent US20260234115A1
